Measured MIC, listed per entry.
# System: Staphylococcus aureus KCTC 1621
// note: answer is a bare numeric in µM

CC(C)C[C@H](NC(=O)[C@H](CS)NC(=O)[C@H](CCCN=C(N)N)NC(=O)[C@H](C)NC(=O)[C@H](C)N)C(=O)N[C@@H](CO)C(=O)N[C@@H](CCC(N)=O)C(=O)N[C@@H](CCCN=C(N)N)C(=O)N[C@@H](CCCN=C(N)N)C(=O)N[C@@H](CCCCN)C(N)=O :: 30

System Staphylococcus aureus KCTC 1621. Read-out MIC. Item "CC(C)C[C@H](NC(=O)[C@H](CCCCN)NC(=O)[C@H](CCCCN)NC(=O)[C@H](CC(C)C)NC(=O)[C@H](CC(C)C)NC(=O)[C@H](CCCCN)NC(=O)[C@H](CCCCN)NC(=O)[C@H](CC(C)C)NC(=O)[C@H](CC(C)C)NC(=O)[C@@H]1CCCN1C(=O)[C@H](CCCCN)NC(=O)[C@H](CCCCN)NC(=O)[C@H](Cc1c[nH]c2ccccc12)NC(=O)[C@@H](N)CCCCN)C(N)=O" . Report value.
6.25
